Tested on: MS2 coat protein
Test: apparent KD of MS2 coat protein; higher = weaker reporter binding
Settings: Eterna round: R107; input ligand: none
Record yes whenever apparent KD of MS2 coat protein is at 20 nM or higher; record no when lower.

1) UGAUUGAACGGAAGGAGCGUGAAGAGAGAGAAACAUGAGGAUCACCCAUGUAGAGAGAGAACACAGGUAGGUCGCCGAGAGAUUG [11.B] = no
2) CUCCCGUGGUCGGCCGCCACUGGAGGCUUUGCGCGACAUGAGGAUCACCCAUGUGUGCCCGGCGUCAGGACCGGGAUCGCGUGAG [#1 Same State - Tryptophan B Attempt #13 (HarryS)] = no
3) GAAGGAGUUAUGGGUACUCCUUCACUGGAAGGAGCGAGCGAAAGCUCAGGUAGGUCGCCAGAAACAUGAGGAUCACCCAUGUAAU [(A)''-(M)'-(A)'-(Arg1)-(Arg2)-(M1)-(M2)_Design6] = yes
4) UGUAUGGACUGAAGGAGCGGUAGAUAGCUUGAGGAUCACCCAAGUAAUAAGGCGAAAGCCUACCAGGUAGGUCGCAGUCCAUACU = yes
5) UACUUGCGGUCGGCCGCCACUACGAGGCAGACCUUCACAUGAGGAUCACCCAUGUAGUCGGCUAGUAGGACCGGGAUGGCAUAAA [Solasoce] = yes
6) GCUAGUGGCAGAAGGAGCGGCAUACUUGCAAGUGACAUGAGGAUCACCCAUGUAAGGGAAUGCCAGGUAGGUCGCUGCCACUAGC [EAB NP+V+V2 #1 +-Same Structure] = yes
7) AAGGUGAUCCGUGAUACCAGCUCAACAUGAGGAUCACCCAUGUACGGGACGAAAGUCCCGGGCCCUUGGCAGCACGGUUGCCAAG [SSTheo B #20] = yes
8) AUGUAGAACCGAAGGAGCGCGAUGACAUGAGGAUCACCCAUGUAUUUGUGGUGGCUUCGAUCGCAGGUAGGUCGCGGAAGUAGUA [#04 Exclusion - Arginine B] = yes
9) ACAUGAGGAUCACCCAUGUACAUGAGGGAAGGAGCGGUACAUGUGCCAGGUAGGUCGCCCAACAGCAUCAGCCAUGUACAACGGA [xxbmullin] = yes
10) ACAUGAGGAUCACCCAUGUACAUCACCCGACGAGGACCGGUACGGCCGCCACUCGGGUAUAUAUAUACAUCGGGUGAUUUUGCAU [#21 Tryptophan A Same State] = yes
11) GCCGGACUUUCGGCCGCCACUGAGAGAGUCGUGUGAACAUGAGGAUCACCCAUGUAAUAUAUAUACAGGACCGGGAGGGUUGGGC [4.R] = no
12) GAACAUAAGGAUACUAUAAUAAGUACAGAAGGAGCGAGCGGAAGCUCAGGUAGGUCGCUGGGUAACAUGAGGAUCACCCAUGUUG [SSArg A #14 Road to perfection1] = yes
